MIC50 values by entry
# Test system: Streptococcus agalactiae
# ASSAY: Antibacterial activity against Streptococcus agalactiae by broth dilution method
# Type: functional
Supply the numeric figure in µg/mL, leaving out any unit text.

Answered examples (2):
COMPOUND_SMILES | STUDY_TARGET | MIC50 (µg/mL)
CC(=O)NC[C@H]1CN(c2ccc(N3CCOCC3)c(F)c2)C(=O)O1 | Streptococcus agalactiae | 1
CN[C@H](CC(C)C)C(=O)N[C@H]1C(=O)N[C@@H](CC(N)=O)C(=O)N[C@H]2C(=O)N[C@H]3C(=O)N[C@H](C(=O)N[C@H](C(=O)O)c4cc(O)cc(O)c4-c4cc3ccc4O)[C@H](O)c3ccc(c(Cl)c3)Oc3cc2cc(c3O[C@@H]2O[C@H](CO)[C@@H](O)[C@H](O)[C@H]2O[C@H]2C[C@](C)(N)[C@H](O)[C@H](C)O2)Oc2ccc(cc2Cl)[C@H]1O | Streptococcus agalactiae | 0.5

Now, please, on to the next compound.
query: // returns reported MIC50 for input `COc1c(N2C[C@@H](C)C[C@H](N)C2)ccc2c(=O)c(C(=O)O)cn(C3CC3)c12.O=C(O)CC(O)C(=O)O`
result: 0.12

###

# System: Enterococcus faecium
# ASSAY: Antibacterial activity against vancomycin resistant Enterococcus faecium by broth dilution method
# Assay type: functional
MIC50 values by entry
Supply the numeric figure in µg/mL, leaving out any unit text.

Answered examples (3):
COMPOUND_SMILES | STUDY_TARGET | MIC50 (µg/mL)
CC(=O)NC[C@H]1CN(c2ccc(N3CCOCC3)c(F)c2)C(=O)O1 | Enterococcus faecium | 2
COc1c(N2C[C@@H](C)C[C@H](N)C2)ccc2c(=O)c(C(=O)O)cn(C3CC3)c12.O=C(O)CC(O)C(=O)O | Enterococcus faecium | 4
CN[C@H](CC(C)C)C(=O)N[C@H]1C(=O)N[C@@H](CC(N)=O)C(=O)N[C@H]2C(=O)N[C@H]3C(=O)N[C@H](C(=O)N[C@H](C(=O)O)c4cc(O)cc(O)c4-c4cc3ccc4O)[C@H](O)c3ccc(c(Cl)c3)Oc3cc2cc(c3O[C@@H]2O[C@H](CO)[C@@H](O)[C@H](O)[C@H]2O[C@H]2C[C@](C)(N)[C@H](O)[C@H](C)O2)Oc2ccc(cc2Cl)[C@H]1O | Enterococcus faecium | 8

Now, please, on to the next compound.
query: // returns reported MIC50 for input `CN(C)c1cc(NC(=O)CNC(C)(C)C)c(O)c2c1C[C@H]1C[C@H]3[C@H](N(C)C)C(O)=C(C(N)=O)C(=O)[C@@]3(O)C(O)=C1C2=O`
result: 0.06

###

# System: Haemophilus influenzae
# ASSAY: Antibacterial activity against Haemophilus influenzae by broth dilution method
# Assay type: functional
MIC50 values by entry
Supply the numeric figure in µg/mL, leaving out any unit text.

COMPOUND_SMILES | UNIT_INFO | MIC50
CO/N=C(\C(=O)N[C@@H]1C(=O)N2C(C(=O)[O-])=C(C[N+]3(C)CCCC3)CS[C@H]12)c1csc(N)n1 | µg/mL | 0.25

Now, please, on to the next molecule.
query: // returns reported MIC50 for input `COc1c(N2C[C@@H](C)C[C@H](N)C2)ccc2c(=O)c(C(=O)O)cn(C3CC3)c12.O=C(O)CC(O)C(=O)O`
result: 0.12
